B1: ZNF649 (parent)
chain: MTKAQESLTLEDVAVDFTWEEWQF

Variants of: B1
PROTOCOL_TEXT: protein stability index of a GFP-peptide fusion (GPS, HEK-293T) (PSI 1-6); higher = more stable;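 also: lentivirally expressed fusions sorted by FACS into six bins by GFP to DsRed ratio, PSI derived from sequencing read proportions per bin multiplied by bin number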
RUN_PARAMETERS: c terminus: a fixed tail appended
REPORTED_PROPERTY: protein stability index

INSERT INTO results (var, value_measured) VALUES
  ('T18L', 2.26),
  ('D16A', 3.34),
  ('M1N', 4.67),
  ('A14T', 2.92),
  ('Q5N', 3.33),
  ('E20Q', 2.32),
  ('Q5E', 3.35),
  ('E20H', 2.22),
  ('V15I', 2.53),
  ('Q23K', 3.28),
  ('E21C', 1.58),
  ('Q23F', 2.66),
  ('D16E', 1.85),
  ('W22C', 3.12),
  ('T18G', 3.37),
  ('T2D', 3.5),
  ('E20S', 2.65),
  ('K3E', 4.29),
  ('V15K', 3.95),
  ('Q23D', 3.51),
  ('E20K', 2.51),
  ('K3C', 2.23);

Where do the numbers come from? From the supplement of paper PMC10567573.
